system_tested: c-MET (HGFR) (Homo sapiens, UniProt P08581)
Construct: purchased Upstate 14-526
Sequence (P08581 974-1390 limits assumed): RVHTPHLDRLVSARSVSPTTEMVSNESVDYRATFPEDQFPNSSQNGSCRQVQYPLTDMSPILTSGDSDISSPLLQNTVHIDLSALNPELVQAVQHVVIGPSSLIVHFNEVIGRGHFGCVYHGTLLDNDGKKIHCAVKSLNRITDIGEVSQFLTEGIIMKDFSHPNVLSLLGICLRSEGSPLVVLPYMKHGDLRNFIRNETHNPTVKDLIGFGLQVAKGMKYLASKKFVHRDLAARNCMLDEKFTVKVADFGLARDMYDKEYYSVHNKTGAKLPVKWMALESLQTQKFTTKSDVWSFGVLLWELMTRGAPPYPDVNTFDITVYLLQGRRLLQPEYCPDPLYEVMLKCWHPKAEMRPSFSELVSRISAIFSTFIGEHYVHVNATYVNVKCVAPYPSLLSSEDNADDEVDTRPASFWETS
test_details: HGFR Continuous-Coupled Spectrophotometric Assay
Assay type: biochemical
run_conditions: Met-2 substrate peptide, 50 nM HGFR, 37° C.; read-out: c-Met Ki
# Ki annotations
quantity_kind: Ki (nM)

>>> measured_number("CCN1CCC(n2cc(-c3cnc(N)c(OC(C)c4c(Cl)ccc(F)c4Cl)c3)cn2)CC1 (stereo not drawn)")
10
>>> measured_number("CC(Oc1cc(-c2cnn(C)c2N)cnc1N)c1c(Cl)ccc(F)c1Cl (stereo not drawn)")
130
>>> measured_number("Cc1noc(C)c1Cn1cc(-c2cnc(N)c(OC(C)c3c(Cl)ccc(F)c3Cl)c2)cn1 (stereo not drawn)")
69

---

system_tested: c-MET (HGFR) (Homo sapiens, UniProt P08581)
Construct: purchased Upstate 14-526
test_details: HGFR Continuous-Coupled Spectrophotometric Assay
Type: biochemical
run_conditions: Met-2 substrate peptide, 50 nM HGFR, 37° C.; read-out: c-Met Ki
Catalogue of Ki readings, one per entry.
quantity_kind: Ki (nM)

>>> measured_number("CC(Oc1cc(-c2cnn(C3CCCS(=O)(=O)C3)c2)cnc1N)c1c(Cl)ccc(F)c1Cl (stereo not shown) [Example 117]")
14
>>> measured_number("CCOC(=O)N1CCC(n2cc(-c3cnc(N)c(OC(C)c4c(Cl)ccc(F)c4Cl)c3)cn2)CC1 (stereo not shown) [Example 101]")
19
>>> measured_number("CC(Oc1cc(-c2cnn(CC3CN(CC#N)C3)c2)cnc1N)c1c(Cl)ccc(F)c1Cl (stereo not shown) [Example 111]")
37
>>> measured_number("CC(Oc1cc(-c2cnn(C3CCN(C(=O)OC(C)(C)C)CC3)c2)cnc1N)c1c(Cl)ccc(F)c1Cl (stereo not shown) [Example 94]")
35

---

system_tested: c-MET (HGFR) (Homo sapiens, UniProt P08581)
Construct: purchased Upstate 14-526
test_details: HGFR Continuous-Coupled Spectrophotometric Assay
Assay type: biochemical
run_conditions: Met-2 substrate peptide, 50 nM HGFR, 37° C.; read-out: c-Met Ki
quantity_kind: Ki

>>> result("CC(Oc1cc(-c2cnn(C(C)(C)C(=O)NCCO)c2)cnc1N)c1c(Cl)ccc(F)c1Cl (stereo not shown)")
"60 nM"
>>> result("CC(Oc1cc(-c2cnn(C3CN(C(C)C)C3)c2)cnc1N)c1c(Cl)ccc(F)c1Cl (stereo not shown)")
"30 nM"
>>> result("CC(Oc1cc(-c2cnn(C(C)(C)CN3CC[C@H](O)C3)c2)cnc1N)c1c(Cl)ccc(F)c1Cl (stereo partly shown)")
"70 nM"
>>> result("C[C@@H](Oc1nc(-c2cnn(C3CCN(C(=O)CN(C)C)CC3)c2)cnc1N)c1c(Cl)ccc(F)c1Cl")
"15 nM"

---

system_tested: c-MET (HGFR) (Homo sapiens, UniProt P08581)
Construct: purchased Upstate 14-526
test_details: HGFR Continuous-Coupled Spectrophotometric Assay
Type: biochemical
run_conditions: Met-2 substrate peptide, 50 nM HGFR, 37° C.; read-out: c-Met Ki
pKi: −log10 of the molar value.
Output TRUE for pKi not less than 7; output FALSE otherwise.

>>> discrete_label("CC(Oc1cc(-c2cnn(C3CN(C(=O)CN(C)C)C3)c2)cnc1N)c1c(Cl)ccc(F)c1Cl (stereo not shown) [Example 7]")
"TRUE"
>>> discrete_label("CC(Oc1cc(-c2cnn(Cc3nn[nH]n3)c2)cnc1N)c1c(Cl)ccc(F)c1Cl (stereo not shown) [Example 100]")
"TRUE"
>>> discrete_label("CC(Oc1cc(-c2ccn(C3CCNCC3)n2)cnc1N)c1c(Cl)ccc(F)c1Cl (stereo not shown) [Example 75]")
"TRUE"
>>> discrete_label("CC(Oc1cc(-c2cnn(C(C)(C)C(=O)N3CCCC3)c2)cnc1N)c1c(Cl)ccc(F)c1Cl (stereo not shown) [Example 57]")
"FALSE"
>>> discrete_label("CCOC(=O)[C@H]1CC1Cn1cc(-c2cnc(N)c(OC(C)c3c(Cl)ccc(F)c3Cl)c2)cn1 (stereo in doubt) [Example 9]")
"TRUE"
>>> discrete_label("CC(Oc1cc(-c2cnn(CC3CN(S(C)(=O)=O)C3)c2)cnc1N)c1c(Cl)ccc(F)c1Cl (stereo not shown) [Example 107]")
"TRUE"
>>> discrete_label("CC(Oc1cc(-c2cnn(CC3CCNCC3)c2)cnc1N)c1c(Cl)ccc(F)c1Cl (stereo not shown) [Example 81]")
"TRUE"
>>> discrete_label("CC(Oc1cc(-c2cnn(C3CCN(C(=O)CO)CC3)c2)cnc1N)c1c(Cl)ccc(F)c1Cl (stereo not shown) [Example 40]")
"TRUE"
>>> discrete_label("CC(Oc1cc(-c2cnn(C3CCN(C(C)C)CC3)c2)cnc1N)c1c(Cl)ccc(F)c1Cl (stereo not shown) [Example 38]")
"TRUE"
>>> discrete_label("CCOC(=O)c1cnn(-c2cnc(N)c(OC(C)c3c(Cl)ccc(F)c3Cl)c2)c1 (stereo not shown) [Example 80]")
"FALSE"
>>> discrete_label("C[C@@H](Oc1nc(Br)cnc1N)c1c(Cl)ccc(F)c1Cl")
"FALSE"
>>> discrete_label("CC(Oc1cc(-c2cnn(C3CCS(=O)(=O)CC3)c2)cnc1N)c1c(Cl)ccc(F)c1Cl (stereo not shown) [Example 116]")
"TRUE"
>>> discrete_label("CC(Oc1cc(-c2cnn(CC3CC4CCC3O4)c2)cnc1N)c1c(Cl)ccc(F)c1Cl (stereo not shown) [Example 28]")
"TRUE"
>>> discrete_label("CC(Oc1cc(-c2cnn(C3CCN(C(=O)CN(C)C)CC3)c2)cnc1N)c1c(Cl)ccc(F)c1Cl (stereo not shown) [Example 44]")
"TRUE"
>>> discrete_label("CC(Oc1cc(-c2cnn(S(C)(=O)=O)c2)cnc1N)c1c(Cl)ccc(F)c1Cl (stereo not shown) [Example 71]")
"FALSE"
>>> discrete_label("CC(Oc1cc(-c2cnn(C(C)(C)C(=O)NCCN3CCCC3)c2)cnc1N)c1c(Cl)ccc(F)c1Cl (stereo not shown) [Example 21]")
"TRUE"
>>> discrete_label("CC(Oc1cc(-c2cnn(C(C)(C)CO)c2)cnc1N)c1c(Cl)ccc(F)c1Cl (stereo not shown) [Example 59]")
"TRUE"
>>> discrete_label("CC(Oc1cc(-c2cnn(CC3CCN(C(=O)CO)CC3)c2)cnc1N)c1c(Cl)ccc(F)c1Cl (stereo not shown) [Example 85]")
"TRUE"
>>> discrete_label("CC(Oc1cc(-c2cnn(C3CN(CC#N)C3)c2)cnc1N)c1c(Cl)ccc(F)c1Cl (stereo not shown) [Example 8]")
"TRUE"
>>> discrete_label("C[C@@H](Oc1nc(-c2cnn(C3CCN(C(=O)CO)CC3)c2)cnc1N)c1c(Cl)ccc(F)c1Cl [Example 68]")
"TRUE"
>>> discrete_label("CC(Oc1cc(-c2cnn(C3CNC(C(N)=O)C3)c2)cnc1N)c1c(Cl)ccc(F)c1Cl (stereo not shown) [Example 91]")
"TRUE"
>>> discrete_label("CC(Oc1cc(-c2cnn(C[C@H](O)CO)c2)cnc1N)c1c(Cl)ccc(F)c1Cl (stereo in doubt) [Example 87]")
"TRUE"
>>> discrete_label("CNCCn1cc(-c2cnc(N)c(OC(C)c3c(Cl)ccc(F)c3Cl)c2)cn1 (stereo not shown) [Example 73]")
"TRUE"
>>> discrete_label("CCN(CC)CCNC(=O)C(C)(C)n1cc(-c2cnc(N)c(OC(C)c3c(Cl)ccc(F)c3Cl)c2)cn1 (stereo not shown) [Example 24]")
"FALSE"
>>> discrete_label("CCN(CC)C(=O)C(C)(C)n1cc(-c2cnc(N)c(OC(C)c3c(Cl)ccc(F)c3Cl)c2)cn1 (stereo not shown) [Example 55]")
"FALSE"
>>> discrete_label("CC(Oc1cc(-c2cnn(CCN3CCNCC3)c2)cnc1N)c1c(Cl)ccc(F)c1Cl (stereo not shown) [Example 82]")
"TRUE"
>>> discrete_label("CC(Oc1cc(-c2cnn(CC3CN(CC4CC4)C3)c2)cnc1N)c1c(Cl)ccc(F)c1Cl (stereo not shown) [Example 112]")
"TRUE"

---

system_tested: c-MET (HGFR) (Homo sapiens)
Construct: purchased Upstate 14-526
test_details: HGFR Continuous-Coupled Spectrophotometric Assay
Format: biochemical
run_conditions: Met-2 substrate peptide, 50 nM HGFR, 37° C.; read-out: c-Met Ki
Excerpt: The following in vitro assay may be used to determine the level of activity and effect of the different compounds of the present invention on one or more of the PKs. Similar assays can be designed along the same lines for any PK using techniques well known in the art. The general procedure is as follows: compounds and kinase assay reagents are introduced into test wells. The assay is initiated by addition of the kinase enzyme. Enzyme inhibitors reduce the measured activity of the enzyme. […]
pKi: −log10 of the molar value.
Please mark yes (1) if the recorded pKi is equal to or greater than 7, and no (0) if it falls below.

>>> discrete_label("COC(=O)C1CC(n2cc(-c3cnc(N)c(OC(C)c4c(Cl)ccc(F)c4Cl)c3)cn2)CN1 (centres unmarked)")
"yes (1)"
>>> discrete_label("C[C@@H](Oc1cc(-c2cnn(C3CCN(C(=O)CO)CC3)c2)cnc1N)c1c(Cl)ccc(F)c1Cl")
"yes (1)"
>>> discrete_label("CC(Oc1cc(-c2cnn(CC3CN(C(C)C)C3)c2)cnc1N)c1c(Cl)ccc(F)c1Cl (centres unmarked)")
"yes (1)"
>>> discrete_label("Cc1[nH]ncc1-c1cnc(N)c(OC(C)c2c(Cl)ccc(F)c2Cl)c1 (centres unmarked)")
"no (0)"
>>> discrete_label("C[C@@H](Oc1cc(-c2cnn(C3CCN(C)CC3)c2)cnc1N)c1c(Cl)ccc(F)c1Cl")
"yes (1)"
